The values you see were collected from patent US8198279B2.

# pIC50 listing for each entry below
SUBJECT OF TEST: B-RAF (Homo sapiens, UniProt P15056, V600E)
Construct: made in house
Sequence (P15056 whole entry V600E): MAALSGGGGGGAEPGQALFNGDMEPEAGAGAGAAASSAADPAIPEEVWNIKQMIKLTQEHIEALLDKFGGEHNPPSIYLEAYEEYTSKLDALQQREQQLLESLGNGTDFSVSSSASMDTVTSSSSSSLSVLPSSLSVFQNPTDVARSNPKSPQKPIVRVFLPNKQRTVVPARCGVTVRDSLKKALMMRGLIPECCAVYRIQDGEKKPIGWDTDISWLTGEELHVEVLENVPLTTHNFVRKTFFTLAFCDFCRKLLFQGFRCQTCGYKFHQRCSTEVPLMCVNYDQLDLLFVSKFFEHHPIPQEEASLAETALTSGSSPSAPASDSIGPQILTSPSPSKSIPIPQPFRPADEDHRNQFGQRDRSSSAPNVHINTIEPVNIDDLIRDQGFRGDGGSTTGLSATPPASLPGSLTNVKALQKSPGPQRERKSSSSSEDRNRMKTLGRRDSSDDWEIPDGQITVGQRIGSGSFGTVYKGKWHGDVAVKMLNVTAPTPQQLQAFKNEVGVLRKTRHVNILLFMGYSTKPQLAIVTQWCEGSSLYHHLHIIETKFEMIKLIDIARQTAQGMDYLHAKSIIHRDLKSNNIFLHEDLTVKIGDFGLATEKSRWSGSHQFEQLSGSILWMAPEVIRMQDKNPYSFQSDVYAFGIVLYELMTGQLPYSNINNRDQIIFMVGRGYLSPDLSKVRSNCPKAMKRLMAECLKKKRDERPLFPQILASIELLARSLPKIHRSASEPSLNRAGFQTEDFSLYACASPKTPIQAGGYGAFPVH
PROCEDURE SUMMARY: DELFIA Kinase Assay
Format: biochemical
CONDITION: 100 μM ATP, GST-MEK substrate
pIC50: −log10 of the molar value.
VALUE TYPE: pIC50

>>> result("Cc1nc2nccc(Oc3ccc(NC(=O)Nc4cc(C(C)(C)C)nn4-c4ccccc4)c(F)c3)c2[nH]c1=O")
"6.00 to 7.00"
>>> result("CC(C)(C)c1cccc(C(=O)Nc2cccc(Oc3ccnc4[nH]c(=O)cnc34)c2)c1")
"> 7.00"
>>> result("Cc1nc2c(Oc3cccc(NC(=O)c4cccc(OC(F)(F)F)c4)c3)ccnc2[nH]c1=O")
"> 7.00"
>>> result("O=C(Nc1cncc(C(F)(F)F)c1)Nc1ccc(Oc2ccnc3[nH]c(=O)cnc23)cc1F")
"> 7.00"

----------
SUBJECT OF TEST: B-RAF (Homo sapiens, UniProt P15056, V600E)
PROCEDURE SUMMARY: DELFIA Kinase Assay
CONDITION: 100 μM ATP, GST-MEK substrate
VALUE TYPE: IC50

>>> result("CC(C)(C)c1cc(NC(=O)Nc2ccc(Oc3ccnc4[nH]c(=O)cnc34)cc2F)n(CC2CC2)n1 [AA-097]")
"< 100 nM"
>>> result("CC(C)(C)c1cc(NC(=O)Nc2ccc(Oc3ccnc4[nH]c(=O)c(N)nc34)c3ccccc23)n(-c2ccccc2)n1 [AA-080]")
"< 100 nM"
>>> result("Cc1ccc(-n2nc(C(C)(C)C)cc2NC(=O)Nc2ccc(Oc3ccnc4[nH]c(=O)cnc34)cc2F)cn1 [AA-084]")
"100 to 1000 nM"
>>> result("CSc1cc(Oc2ccnc3[nH]c(=O)c(C)nc23)ccc1NC(=O)Nc1cc(C(C)(C)C)nn1-c1ccc(C)cc1 [AA-061]")
"< 100 nM"
>>> result("Cc1ccc(-n2nc(C(C)(C)C)cc2NC(=O)Nc2ccc(Oc3ccnc4[nH]c(=O)c(C)nc34)c3ccccc23)cc1 [AA-011]")
"< 100 nM"
>>> result("O=C(Nc1cccc(Oc2ccnc3ncc(=O)[nH]c23)c1)Nc1cc(C(F)(F)F)ccc1F [AA-032]")
"< 100 nM"
>>> result("Cc1ccc(-n2nc(C(C)(C)C)cc2NC(=O)Nc2ccc(Oc3ccnc4[nH]c(=O)c(N)nc34)c3ccccc23)cc1 [AA-077]")
"100 to 1000 nM"
>>> result("O=C(Nc1ccc(Oc2ccnc3[nH]c(=O)cnc23)c(F)c1)Nc1cc(C(F)(F)F)ccc1F [AA-086]")
"< 100 nM"
>>> result("O=C(Nc1cc(C(F)(F)F)ccc1F)Nc1ccc(Oc2ccnc3nc(C(F)(F)F)c(=O)[nH]c23)c2ccccc12 [AA-083]")
"100 to 1000 nM"
>>> result("Cc1nc2c(Oc3ccc(NC(=O)Nc4cc(C(F)(F)F)ccc4F)c(F)c3)ccnc2[nH]c1=O [AA-028]")
"< 100 nM"
>>> result("CSc1cc(Oc2ccnc3[nH]c(=O)c(C)nc23)ccc1NC(=O)Nc1cc(C(C)(C)C)nn1-c1ccccc1 [AA-065]")
"< 100 nM"
>>> result("O=C(Nc1ccc(Sc2ccnc3[nH]c(=O)cnc23)cc1)Nc1cc(C(F)(F)F)ccc1F [AA-027]")
"< 100 nM"
>>> result("O=C(Nc1ccc(Oc2ccnc3ncc(=O)[nH]c23)cc1F)Nc1cc(C(F)(F)F)ccc1F [AA-047]")
"< 100 nM"
>>> result("O=C(Nc1ccc(Oc2ccnc3[nH]c(=O)c(=O)[nH]c23)cc1)Nc1ccc(Cl)c(C(F)(F)F)c1 [AA-050]")
"< 100 nM"
>>> result("Cc1ccc(-n2nc(C(C)(C)C)cc2NC(=O)Nc2ccc(Oc3ccnc4[nH]c(=O)cnc34)c(F)c2)cc1 [AA-088]")
"< 100 nM"
>>> result("CC(C)(C)c1cc(NC(=O)Nc2cccc(Oc3ccnc4ncc(=O)[nH]c34)c2)n(-c2ccccc2)n1 [AA-076]")
"100 to 1000 nM"
>>> result("CC(C)(C)c1cc(NC(=O)Nc2ccc(Oc3ccnc4[nH]c(=O)cnc34)c3ccccc23)n(-c2ccccc2)n1 [AA-008]")
"< 100 nM"
>>> result("Cc1ccc(-n2nc(C(C)(C)C)cc2NC(=O)Nc2cccc(Oc3ccnc4[nH]c(=O)c(C)nc34)c2)cc1 [AA-078]")
"100 to 1000 nM"
>>> result("CSc1cc(Oc2ccnc3[nH]c(=O)c(=O)[nH]c23)ccc1NC(=O)Nc1cc(C(F)(F)F)ccc1F [AA-052]")
"< 100 nM"
>>> result("Cc1ccc(-n2nc(C(C)(C)C)cc2NC(=O)Nc2ccc(Oc3ccnc4[nH]c(=O)c(N)nc34)cc2F)cc1 [AA-057]")
"100 to 1000 nM"
>>> result("O=C(Nc1ccc(Oc2ccnc3[nH]c(=O)c(=O)[nH]c23)cc1F)Nc1cc(C(F)(F)F)ccc1F [AA-072]")
"< 100 nM"
>>> result("O=C(Nc1cccc(Oc2ccnc3[nH]c(=O)cnc23)c1)Nc1cc(C(F)(F)F)ccc1F [AA-007]")
"< 100 nM"
>>> result("O=C(Nc1ccc(Oc2ccnc3[nH]c(=O)cnc23)cc1)Nc1ccc(Cl)c(C(F)(F)F)c1 [AA-020]")
"< 100 nM"
>>> result("Cc1ccc(-n2nc(C(C)(C)C)cc2NC(=O)Nc2ccc(Oc3ccnc4[nH]c(=O)cnc34)c3ccccc23)cc1 [AA-010]")
"< 100 nM"
>>> result("COCn1nc(C(C)(C)C)cc1NC(=O)Nc1ccc(Oc2ccnc3[nH]c(=O)cnc23)cc1F [AA-098]")
"< 100 nM"
>>> result("CC(C)(C)c1cccc(C(=O)Nc2cccc(Oc3ccnc4ncc(=O)[nH]c34)c2)c1 [AA-029]")
"< 100 nM"
